Reference source: ChEMBL document CHEMBL1201862

# Tested on: HL-60
# testDetails: NCI tumour cell line growth inhibition, 48 h
The source made the active and inactive calls. Cut-off read from the data, not from the text of the source: active = GI50 up to about 1.1 µM and inactive = higher.
Possible outcomes: 1 (yes) = active, 0 (no) = inactive

>  <compound>
NC(=O)SCCC(N)C(=O)O (configuration not stated)

>  <class>
0 (no)

$$$$
>  <compound>
CCOC(=O)c1cnc2cc3cccccc3n2c1=O

>  <class>
0 (no)

$$$$
>  <compound>
O=C(CC(=O)c1cccc([N+](=O)[O-])c1)C(=O)Nc1nc([N+](=O)[O-])cs1

>  <class>
0 (no)

$$$$
>  <compound>
[O-][S+]1Nc2c(Cl)cc(Cl)c(Cl)c2S1 (configuration not stated)

>  <class>
0 (no)

$$$$
>  <compound>
CC1(O)C(C)(O)C2(C)O[Te]3(OC12C)OC1(C)C(C)(O)C(C)(O)C1(C)O3 (configuration not stated)

>  <class>
0 (no)

$$$$
>  <compound>
CC(=O)Nc1ccc(-c2nc3cc(Cl)ccc3o2)cc1

>  <class>
0 (no)

$$$$
>  <compound>
OCSc1nn(CO)c(=S)s1

>  <class>
0 (no)

$$$$
>  <compound>
C=C(C)C12OC1[C@@]1(C)C(=CC2=O)CCC(O)[C@@H]1C (some centres not stated)

>  <class>
0 (no)

$$$$
>  <compound>
O=c1c2cc(I)ccc2nc(Sc2ccc([N+](=O)[O-])cc2[N+](=O)[O-])n1Cc1ccccc1

>  <class>
0 (no)

$$$$
>  <compound>
Cc1no[n+]([O-])c1/C=N/NS(=O)(=O)c1ccccc1

>  <class>
0 (no)

$$$$
>  <compound>
Cc1cc2c(cc1C)[n+]([O-])c(NCCCN(C)C)c(C#N)[n+]2[O-]

>  <class>
0 (no)

$$$$
>  <compound>
C/C(=N\N)C(CN1CCOCC1)C(c1ccccc1)c1c(O)c2ccccc2oc1=O (configuration not stated)

>  <class>
0 (no)

$$$$
>  <compound>
CC1(O)C2(c3ccccc3)CCC[N+]1(C)CC2 (configuration not stated)

>  <class>
0 (no)

$$$$
>  <compound>
O=C(C=P(c1ccccc1)(c1ccccc1)c1ccccc1)c1ccc(-c2cccc([N+](=O)[O-])c2)s1

>  <class>
0 (no)

$$$$
>  <compound>
Cc1c(C(=O)CC(=O)C(=O)Nc2ccc(Cl)c(Cl)c2)[n+]([O-])c2ccccc2[n+]1[O-]

>  <class>
0 (no)

$$$$
>  <compound>
O=C1OC(C(O)CO)C(O)=C1O (configuration not stated)

>  <class>
0 (no)

$$$$
>  <compound>
O=C/C(=C(/Br)I)c1ccccc1

>  <class>
1 (yes)

$$$$
>  <compound>
COC(=O)CC(NC(=O)OCc1ccccc1)C(C(=O)OCc1ccccc1)C1(C)OCCO1 (configuration not stated)

>  <class>
0 (no)

$$$$
>  <compound>
O=C1CCC2(CC1)SCCCS2

>  <class>
0 (no)

$$$$
>  <compound>
CCCC(C)C[C@@H](C)CC(C)/C=C(\C)c1oc(=O)c(C)c(O)c1C.CC[C@@H](C)C[C@@H](C)C[C@@H](C)/C=C(\C)c1oc(=O)c(C)c(O)c1C (some centres not stated)

>  <class>
0 (no)

$$$$
>  <compound>
NC(=O)c1cc2ccc(O)cc2o/c1=N/c1ccccc1

>  <class>
0 (no)

$$$$
>  <compound>
CCOC(=O)c1c[nH]c2c(ccc3nn(C)nc32)c1=O

>  <class>
0 (no)

$$$$
